- Tested on: C. difficile
- EXPERIMENT: agar dilution MIC assay of anaerobic bacteria
- Type: cell-based, Clostridium difficile
- CONDITIONS: Clostridioides difficile, C. difficile, Micromyx Number 3581, Table 1; read-out: MIC
RECORDED ENDPOINT: MIC (µg/mL)
Number only, in µg/mL; omit the unit.

Cc1ncc([N+](=O)[O-])n1CCO [metronidazole, reference compound] : 1
CC(C)C(=O)OCCCCCn1cnc2nc(NCc3ccc(Cl)c(Cl)c3)[nH]c(=O)c21 [Compound 332E] : 4
CCc1cc(Nc2cc(=O)n(CCCCO)c(=O)[nH]2)ccc1C [Compound 179E] : 8
CN[C@H](CC(C)C)C(=O)N[C@H]1C(=O)N[C@@H](CC(N)=O)C(=O)N[C@H]2C(=O)N[C@H]3C(=O)N[C@H](C(=O)N[C@H](C(=O)O)c4cc(O)cc(O)c4-c4cc3ccc4O)[C@H](O)c3ccc(c(Cl)c3)Oc3cc2cc(c3O[C@@H]2O[C@H](CO)[C@@H](O)[C@H](O)[C@H]2O[C@H]2C[C@](C)(N)[C@H](O)[C@H](C)O2)Oc2ccc(cc2Cl)[C@H]1O [vancomycin, reference compound] : 1

[ask] Please look up its MIC: CCc1cc(Nc2nc3ncn(CCCCCOC)c3c(=O)[nH]2)ccc1C [Compound 315C]
[reply] 8

Measured values drawn from patent US8796292B2 for this set.
